Kindly state HCR for each of the entries shown.
- System: murine SCCVII
- EXPERIMENT: Clonogenic assay under aerobic and hypoxic conditions, SCCVII
- Type: cell-based
- SETUP_CONDITIONS: SCVIII cells, ratio of C10 under aerobic and hypoxic conditions
API doc: respond with a numeric literal and nothing else, no unit.

stdin: Given `Cc1cccc2cc3cccc(C(=O)NCCN(C)CCNc4n[n+]([O-])c5ccccc5[n+]4[O-])c3nc12` , state its recorded HCR.
stdout: 176

stdin: Check `[O-][n+]1nc(NCCCCCCNc2c3ccccc3nc3ccccc23)[n+]([O-])c2ccccc21` too.
stdout: 20.0

stdin: Check `COCCOc1ccc2c(c1)[n+]([O-])nc(NCCCN(C)CCCNC(=O)c1cccc3cc4ccccc4nc13)[n+]2[O-]` too.
stdout: 63.6

stdin: Check `CN(CCCNC(=O)c1cccc2ccc(-c3ccncc3)nc12)CCCNc1n[n+]([O-])c2ccccc2[n+]1[O-]` too.
stdout: 10

stdin: Check `CN(CCCNC(=O)c1cccc2cc3ccccc3nc12)CCCNc1n[n+]([O-])c2ccccc2[n+]1[O-]` too.
stdout: 52.5

---

Structures can show the parent of a compound that is named as a salt.
Kindly state melting point for each of the entries shown.

stdin: Given `O=C(NCCOCCNc1n[n+]([O-])c2ccccc2[n+]1[O-])c1cccc2[nH]c(-c3ccccc3)nc12` , state its recorded melting point.
stdout: 203 to 207 °C

stdin: Check `Cc1ccc2c(c1)[n+]([O-])nc(NCCCN(C)CCCNC(=O)c1cccc3nc4ccccc4nc13)[n+]2[O-]` too.
stdout: 118 to 122 °C

stdin: Check `O=C(CCNc1ccnc2cc(Cl)ccc12)NCCCNc1n[n+]([O-])c2ccccc2[n+]1[O-]` too.
stdout: 202 °C (dec.)

stdin: Check `Cc1ccc2c(c1)[n+]([O-])c(NCCCN(C)CCCNC(=O)c1cccc3nc4ccccc4nc13)n[n+]2[O-]` too.
stdout: 111 to 114 °C

stdin: Check `Cc1cccc2nc3c(C(=O)NCCCN(C)CCCNc4n[n+]([O-])c5ccccc5[n+]4[O-])cccc3nc12` too.
stdout: 138 to 142 °C

stdin: Check `Cc1cccc2nc3cccc(C(=O)NCCN(C)CCNc4n[n+]([O-])c5ccccc5[n+]4[O-])c3nc12` too.
stdout: 161 to 163 °C

stdin: Check `Cc1cccc2nc3cccc(C(=O)NCCCNCCCNc4n[n+]([O-])c5ccccc5[n+]4[O-])c3nc12.Cl` too.
stdout: 183 to 186 °C

stdin: Check O=C(NCCCNc1n[n+]([O-])c2ccccc2[n+]1[O-])c1cccc2cc3ccccc3nc12 (as salt: hydrochloride) too.
stdout: 192 °C

stdin: Check `O=C(NCCCCCCNc1n[n+]([O-])c2ccccc2[n+]1[O-])c1ccnc2ccccc12` too.
stdout: 196 to 198 °C

stdin: Check `O=C(NCCOCCNc1n[n+]([O-])c2ccccc2[n+]1[O-])c1cccc2cccnc12` too.
stdout: 168 to 170 °C

stdin: Check `Cc1ccc2c(c1)[n+]([O-])nc(NCCCN(C)CCCNC(=O)c1cccc3ccc(-c4ccncc4)nc13)[n+]2[O-]` too.
stdout: 178 to 180 °C

stdin: Check `Cc1ccc2c(c1)[n+]([O-])nc(NCCCN(C)CCCNC(=O)c1cccc3cc4ccccc4nc13)[n+]2[O-]` too.
stdout: 166 to 168 °C

stdin: Check `O=C(NCCOCCNc1n[n+]([O-])c2ccccc2[n+]1[O-])c1cccc2ccc(-c3ccncc3)nc12` too.
stdout: 128 to 130 °C

stdin: Check `Cc1ccc2c(c1)[n+]([O-])nc(NCCCNCCCNC(=O)c1cccc3nc4cccc(C)c4nc13)[n+]2[O-]` too.
stdout: 119 to 122 °C

stdin: Check `Cc1cccc2cc3cccc(C(=O)NCCN(C)CCNc4n[n+]([O-])c5ccccc5[n+]4[O-])c3nc12` too.
stdout: 148 to 152 °C

stdin: Check `CN(CCNC(=O)c1cccc2nc3ccccc3nc12)CCNc1n[n+]([O-])c2ccccc2[n+]1[O-]` too.
stdout: 163 to 165 °C

stdin: Check `CN(C)CCCC(=O)c1cc(NC(=O)c2cc(NC(=O)CCCNc3n[n+]([O-])c4ccccc4[n+]3[O-])cn2C)cn1C` too.
stdout: 140 to 145 °C

stdin: Check `Cc1ccc2c(c1)[n+]([O-])c(NCCCN(C)CCCNC(=O)c1cccc3ccc(-c4ccncc4)nc13)n[n+]2[O-]` too.
stdout: 178 to 180 °C

stdin: Check `CN(CCNC(=O)c1cccc2ccc(-c3ccncc3)nc12)CCNc1n[n+]([O-])c2ccccc2[n+]1[O-]` too.
stdout: 130 to 135 °C

stdin: Check `O=C(NCCNCCNc1n[n+]([O-])c2ccccc2[n+]1[O-])c1cccc2ccc(-c3ccncc3)nc12` too.
stdout: 160 to 165 °C

stdin: Check `O=C(NCCCCCCNc1n[n+]([O-])c2ccccc2[n+]1[O-])c1cccc2cc3ccccc3nc12` too.
stdout: 196 to 198 °C

stdin: Check `Cc1cccc2cc3cccc(C(=O)NCCNCCNc4n[n+]([O-])c5ccccc5[n+]4[O-])c3nc12` too.
stdout: 135 to 140 °C

stdin: Check `Cl.O=C(NCCCNCCCNc1n[n+]([O-])c2ccccc2[n+]1[O-])c1cccc2nc3ccccc3nc12` too.
stdout: 163 to 169 °C

stdin: Check CN(CCCNC(=O)c1cccc2nc3ccccc3nc12)CCCc1n[n+]([O-])c2ccccc2[n+]1[O-] (as salt: hydrochloride) too.
stdout: 173 °C

stdin: Check `Cc1ccc2c(c1)[n+]([O-])c(NCCCNCCCNC(=O)c1cccc3nc4cccc(C)c4nc13)n[n+]2[O-]` too.
stdout: 80 to 83 °C

---

Kindly state HCR for each of the entries shown.
- System: human cervical carcinoma SiHa
- EXPERIMENT: Proliferation assay (IC50) under aerobic and hypoxic conditions, SiHa
- Assay type: cell-based
- SETUP_CONDITIONS: ratio of IC50 under aerobic and hypoxic conditions

stdin: Given Cc1cccc2cc3cccc(C(=O)NCCNCCNc4n[n+]([O-])c5ccccc5[n+]4[O-])c3nc12 [Compound 103] , state its recorded HCR.
stdout: 118

stdin: Check COCCOc1ccc2c(c1)[n+]([O-])nc(NCCCN(C)CCCNC(=O)c1cccc3cc4ccccc4nc13)[n+]2[O-] [Compound 55] too.
stdout: 124

stdin: Check O=C(NCCNCCNc1n[n+]([O-])c2ccccc2[n+]1[O-])c1cccc2ccc(-c3ccncc3)nc12 [Compound 102] too.
stdout: 53

stdin: Check Cc1ccc2c(c1)[n+]([O-])c(NCCCN(C)CCCNC(=O)c1cccc3ccc(-c4ccncc4)nc13)n[n+]2[O-] [Compound 86] too.
stdout: 136

---

- Tested on: murine SCCVII
- EXPERIMENT: Clonogenic assay under aerobic and hypoxic conditions, SCCVII
- Type: cell-based
- SETUP_CONDITIONS: SCVIII cells, ratio of hypoxic TPZ C10 to hypoxic compound C10
MEASURE: RHT
API doc: respond with a numeric literal and nothing else, no unit.

stdin: Given COCCOc1ccc2c(c1)[n+]([O-])nc(NCCCN(C)CCCNC(=O)c1cccc3cc4ccccc4nc13)[n+]2[O-] [Compound 55] , state its recorded RHT.
stdout: 10

stdin: Check CN(CCNC(=O)c1cccc2ccc(-c3ccncc3)nc12)CCNc1n[n+]([O-])c2ccccc2[n+]1[O-] [Compound 96] too.
stdout: 3.9

stdin: Check CN(CCCNC(=O)c1cccc2cc3ccccc3nc12)CCCNc1n[n+]([O-])c2ccccc2[n+]1[O-] [Compound 41] too.
stdout: 12.5

stdin: Check [O-][n+]1nc(NCCCCCCNc2c3ccccc3nc3ccccc23)[n+]([O-])c2ccccc21 [Compound 11] too.
stdout: 16.7

---

- Tested on: murine SCCVII
- EXPERIMENT: Clonogenic assay under aerobic and hypoxic conditions, SCCVII
- Assay type: cell-based
- SETUP_CONDITIONS: SCVIII cells, ratio of hypoxic TPZ C10 to hypoxic compound C10
- Experimental: Evaluation of the Cytotoxicity of Compounds by Clonogenic Assay Under Aerobic and Hypoxic Conditions. Compounds representative of the invention were evaluated under both aerobic and hypoxic conditions in clonogenic assays, using three cell lines: human colon carcinoma HT-29, murine SCCVII, and human lung adenocarcinoma LXFL. Clonogenic survival was determined using aerobic and hypoxic SCCVII cell suspensions. […]
Kindly state RHT for each of the entries shown.

stdin: Short answer please: RHT, murine SCCVII, entry Cc1cccc2nc3c(C(=O)NCCCN(C)CCCNc4n[n+]([O-])c5ccccc5[n+]4[O-])cccc3nc12 [Compound 45]
stdout: 29

stdin: Check Cc1cccc2cc3cccc(C(=O)NCCN(C)CCNc4n[n+]([O-])c5ccccc5[n+]4[O-])c3nc12 [Compound 99] too.
stdout: 17.2

stdin: Check O=C(NCCCNc1n[n+]([O-])c2ccccc2[n+]1[O-])c1cccc2cc3ccccc3nc12 [Compound 17] too.
stdout: 1.94

stdin: Check CN(CCNC(=O)c1cccc2cc3ccccc3nc12)CCNc1n[n+]([O-])c2ccccc2[n+]1[O-] [Compound 95] too.
stdout: 11

stdin: Check CN(CCCNC(=O)c1cccc2ccc(-c3ccncc3)nc12)CCCNc1n[n+]([O-])c2ccccc2[n+]1[O-] [Compound 43] too.
stdout: 5.7

stdin: Check O=C(NCCCNCCCNc1n[n+]([O-])c2ccccc2[n+]1[O-])c1cccc2cc3ccccc3nc12 [Compound 30] too.
stdout: 20

stdin: Check Cc1cccc2cc3cccc(C(=O)NCCCN(C)CCCNc4n[n+]([O-])c5ccccc5[n+]4[O-])c3nc12 [Compound 44] too.
stdout: 56.3
